Could you please report measured pIC50 for the items listed next?
biological target: human HSV DNA polymerase UL30 (Human herpesvirus 1 (strain 17) (HHV-1) (Human herpes simplex virus 1), UniProt P04293); assay: biochemical; details: 625 pM HSV polymerase, 20 minutes at room temperature; read-out: HSV-polymerase Biochemical IC50
One number for each entry, as −log10 of the molar value.

Worked cases, pIC50 given:
# compound, pIC50
data = [
    ("CN(C)CCOCC(C)(C)S(=O)(=O)C1(CN2CCc3c(C(=O)NCc4ccc(C#N)cc4)nn(C)c3C2=O)CC1", 6.97),
    ("Cn1nc(C(=O)N[C@@H](CO)c2ccc(Cl)cc2)c2c1C(=O)N(CC1(S(=O)(=O)C3CC3)CC1)CC2", 5.98),
]

Dear colleague, could you please provide pIC50 for the compounds listed below?
1. Cn1nc(C(=O)NCc2ccc(C#N)cc2)c2c1C(=O)N(CC1(S(=O)(=O)C(C)(C)COCC(C)(C)O)CC1)CC2
2. CN(C)CC(O)C(C)(C)S(=O)(=O)C1(CN2CCc3c(C(=O)NCc4ccc(Cl)cc4)nn(C)c3C2=O)CC1 (single isomer, unassigned) [Example 206]

A)
1: 6.80; 2: 7.13
